Tested on: MOLT-4 leukemia
Assay summary: NCI tumour cell line growth inhibition, 48 h
Measurement label: GI50

Examples with answers:
CCC(=C/[C@H](C)C/C=C/C(C)=C/[C@@H](C)C(=O)[C@@H](C)[C@H](O)[C@@H](C)CC)/C=C/[C@H]1OC(=O)C=C[C@@H]1C :: < 0.01 µM
O=C(Oc1ccc(Cl)cc1)c1ccccc1Nc1ccnc(C(F)(F)F)c1 :: > 100 µM
Nc1ccc(C2=NNC(=O)Cc3cc4c(cc32)OCCO4)cc1Cl :: 3.05 µM
COc1ccc2nc(NC(=O)CSc3nnc4n3S(=O)(=O)c3ccccc3N4c3ccccc3)sc2c1 :: > 100 µM
Cc1nnc(NC(=O)c2nc(S(=O)(=O)Cc3ccc(F)cc3)ncc2Cl)s1 :: 2.02 µM

[in] Entry `CN(C)c1cc(NN=C(c2ccc(O)cc2)c2ccc(O)cc2)c([N+](=O)[O-])cc1[N+](=O)[O-]` : reported GI50 = ?
[out] 3.37 µM
